Some compounds, each annotated with its measured pIC50.
- STUDY_TARGET: G1 APOL1 (Homo sapiens, UniProt O14791, I384M/S342G)
- Construct: expressed in transfected cells
- Sequence (O14791 28-398 S342G/I384M): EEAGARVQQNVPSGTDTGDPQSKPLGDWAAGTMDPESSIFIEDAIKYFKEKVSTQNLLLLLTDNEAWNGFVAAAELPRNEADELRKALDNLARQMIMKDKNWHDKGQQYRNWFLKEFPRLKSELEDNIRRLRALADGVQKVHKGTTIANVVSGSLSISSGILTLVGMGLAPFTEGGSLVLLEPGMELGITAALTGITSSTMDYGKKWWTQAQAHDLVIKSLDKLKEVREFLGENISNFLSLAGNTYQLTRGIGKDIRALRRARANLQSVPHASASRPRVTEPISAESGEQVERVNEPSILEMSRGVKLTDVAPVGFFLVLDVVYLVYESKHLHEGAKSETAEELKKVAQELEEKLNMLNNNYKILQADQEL
- RUN_DESCRIPTION: Acute APOL1 Thallium Assay with inducible stable clones of HEK 293 cells
- Type: cell-based
- PROTOCOL_CONDITIONS: HEK 293 T-Rex inducible stable clone expressing G1 APOL1; read-out: Thallium Assay (IC50)
pIC50: −log10 of the molar value.

Example entries and their recorded answers appear below.
O=C(CN1CCOCC1)N[C@H]1C[C@@H](c2c(-c3ccc(F)cc3)[nH]c3c(F)cc(F)cc32)C1 ... < 6.00
O=C(C1CCO1)N1CCC(Cc2c(-c3ccc(F)cc3)[nH]c3c(F)cc(F)cc23)C1 (stereo not shown) ... 6.00 to 6.60
O=C(CC1CS(=O)(=O)C1)N[C@H]1C[C@H](c2c(-c3ccc(F)cc3)[nH]c3c(F)cc(F)cc32)C1 ... < 6.00
CC[C@H](NC(=O)OC(C)(C)C)C(=O)NC[C@H]1C[C@H](c2c(-c3ccc(F)cc3)[nH]c3c(F)cc(F)cc32)C1 ... < 6.00

Tell me its pIC50 given O=C(NC[C@H]1C[C@H](c2c(-c3ccc(F)cc3)[nH]c3c(F)cc(F)cc32)C1)[C@H]1CCN1 as the entry.
< 6.00

Output measured pIC50 for this item: O=C(N[C@H]1C[C@H](c2c(-c3ccc(F)cc3)[nH]c3c(F)cc(F)cc32)C1)C1(O)CC1
> 6.60

# return recorded pIC50 for entry O=C(NC[C@H]1C[C@@H](c2c(-c3ccc(F)cc3)[nH]c3c(F)cc(F)cc32)C1)C1CCO1 (stereo partly shown)
6.00 to 6.60

====

- STUDY_TARGET: G1 APOL1 (Homo sapiens, UniProt O14791, I384M/S342G)
- Construct: expressed in transfected cells
- RUN_DESCRIPTION: Acute APOL1 Thallium Assay with inducible stable clones of HEK 293 cells
- Type: cell-based
- PROTOCOL_CONDITIONS: HEK 293 T-Rex inducible stable clone expressing G1 APOL1; read-out: Thallium Assay (IC50)
Measured IC50 values are reported for all entries that follow.

Please review the entries below; each comes with its answer.
O=C(N[C@H]1C[C@@H](c2c(-c3ccc(F)cc3)[nH]c3c(F)cc(F)cc32)C1)c1cn[nH]c1 ... 250 to 1000 nM
O=C1CC(NC[C@H]2C[C@H](c3c(-c4ccc(F)cc4)[nH]c4c(F)cc(F)cc43)C2)C(=O)N1 (stereo partly drawn) ... 250 to 1000 nM
CC(O)CCNS(=O)(=O)NC[C@H]1C[C@H](c2c(-c3ccc(F)cc3)[nH]c3c(F)cc(F)cc32)C1 (stereo partly drawn) ... 250 to 1000 nM
CC(=O)N[C@@H](CO)C(=O)NC[C@H]1C[C@H](c2c(-c3ccc(F)cc3)[nH]c3c(F)cc(F)cc32)C1 ... 250 to 1000 nM
O=C(CC1CC(F)(F)C1)N[C@H]1C[C@H](c2c(-c3ccc(F)cc3)[nH]c3c(F)cc(F)cc32)C1 ... > 1000 nM

Please tell me the measured IC50 for O=C1NCCN1C[C@H]1C[C@H](c2c(-c3ccc(F)cc3)[nH]c3c(F)cc(F)cc32)C1 ; system: G1 APOL1 (Homo sapiens, UniProt O14791, I384M/S342G).
< 250 nM

Give IC50; test system G1 APOL1 (Homo sapiens, UniProt O14791, I384M/S342G); compound Fc1ccc(-c2[nH]c3c(F)cc(F)cc3c2C2CC(CN[C@H]3CCOC3)C2)cc1 (stereo partly drawn)
> 1000 nM

// fetch IC50; item: O=C(N1CC(c2c(-c3ccc(F)cc3)[nH]c3c(F)cc(F)cc23)C1)C1(O)CC1 ; system: G1 APOL1 (Homo sapiens, UniProt O14791, I384M/S342G)
250 to 1000 nM

Enter recorded IC50 with G1 APOL1 (Homo sapiens, UniProt O14791, I384M/S342G) for C[C@@]1(C(=O)NC[C@H]2C[C@H](c3c(-c4ccc(F)cc4)[nH]c4c(F)cc(F)cc43)C2)CCCN1 here.
> 1000 nM

Find the measured IC50 of O=S(=O)(NC[C@@H](O)CO)NC[C@H]1C[C@H](c2c(-c3ccc(F)cc3)[nH]c3c(F)cc(F)cc32)C1 with G1 APOL1 (Homo sapiens, UniProt O14791, I384M/S342G) as test system.
> 1000 nM

Answer with IC50 of NCC1CC(c2c(-c3ccc(Cl)cc3)[nH]c3c(F)cc(F)cc23)C1 (mixture of isomers) measured for G1 APOL1 (Homo sapiens, UniProt O14791, I384M/S342G).
< 250 nM

Provide IC50, tested on G1 APOL1 (Homo sapiens, UniProt O14791, I384M/S342G), for CC[C@@H](N)C(=O)NC[C@H]1C[C@H](c2c(-c3ccc(F)cc3)[nH]c3c(F)cc(F)cc32)C1 .
> 1000 nM

Given COCC(=O)NC1CC(c2c(-c3ccc(F)cc3)[nH]c3c(F)cc(F)cc23)C1 (stereo not drawn) , report its IC50 on G1 APOL1 (Homo sapiens, UniProt O14791, I384M/S342G).
250 to 1000 nM

Print G1 APOL1 (Homo sapiens, UniProt O14791, I384M/S342G) IC50 for Cn1ccnc1S(=O)(=O)N[C@H]1C[C@@H](c2c(-c3ccc(F)cc3)[nH]c3c(F)cc(F)cc32)C1 .
> 1000 nM

State IC50 (G1 APOL1 (Homo sapiens, UniProt O14791, I384M/S342G)) of CC(F)(F)C(=O)N[C@H]1C[C@@H](c2c(-c3ccc(F)cc3)[nH]c3c(F)cc(F)cc32)C1 .
250 to 1000 nM
